TARGET ENTITY: HSF-PLA2 (Homo sapiens, UniProt P14555)
Construct: extracellular enzyme obtained from human synovial fluid (HSF-PLA2)
METHOD SUMMARY: Assay for Inhibition of HSF-PLA2 In Vitro
RUN CONDITIONS: read-out: Inhib of HSF-PLA2 IC50
Each entry below carries its reported IC50.

MOLECULE	IC50, nM
CCCCCCCCCCCCCCCCCCOc1cc(C(=O)O)cc(N(CC(=O)O)CC(=O)O)c1	1000
CCCCC/C=C\C/C=C\CCCCCCCCOc1cccc(N(CC(=O)O)CC(=O)O)c1	200
CCCCCCCCCCCCCCCCCCNC(=O)c1cc(C(=O)NCCCCCCCCCCCCCCCCCC)cc(N(CC(=O)O)CC(=O)O)c1	640
CCCCCCCCCCCCCCNC(=O)c1cc(C(=O)NCCCCCCCCCCCCCC)cc(N(CC(=O)O)CC(=O)O)c1	300
CCCCCCCCCCOc1cccc(N(CC(=O)O)CC(=O)O)c1 [Example 36a]	2900
CCCCCCCCCCCCCCCCCCOc1cc(OCCCOc2ccccc2)cc(N(CC(=O)O)CC(=O)O)c1	60
CCCCCCCCCCCCCCCCCCOc1cc(OCCOc2ccc3ccccc3c2)cc(N(CC(=O)O)CC(=O)O)c1 [Example 58h]	50
CCCCCCCCCCCCCCCCCCOc1cccc(N(CC(=O)O)CC(=O)O)c1	170

---

TARGET ENTITY: HSF-PLA2 (Homo sapiens, UniProt P14555)
Construct: extracellular enzyme obtained from human synovial fluid (HSF-PLA2)
METHOD SUMMARY: Assay for Inhibition of HSF-PLA2 In Vitro
RUN CONDITIONS: read-out: Inhib of HSF-PLA2 IC50
Protocol: Assay for Inhibition of HSF-PLA2 In Vitro The PLA2 used in this test is the extracellular enzyme obtained from human synovial fluid (HSF-PLA2). The optimal conditions which were developed for the assay of HSF-PLA2 inhibitors are summarized as follows. […] The reaction was initiated by the addition of HSF-PLA2 and duplicate samples of the mixture were incubated in 13×100 mm glass tubes with shaking for 30 minutes at 37° C. […]
pIC50: −log10 of the molar value.
MEASUREMENT LABEL: pIC50

COMPOUND STRUCTURE STRING	MEASUREMENT LABEL	RESULT VALUE
CCCCCCCCCCc1cc(CCCCCCCCCC)cc(N(CC(=O)O)CC(=O)O)c1	pIC50	5.82
CCCCCCCCCC(=O)Nc1cc(NC(=O)CCCCCCCCC)cc(N(CC(=O)O)CC(=O)O)c1	pIC50	5.42
CCCCCCCCCCNC(=O)c1cc(C(=O)NCCCCCCCCCC)cc(N(CC(=O)O)CC(=O)O)c1	pIC50	6.52
CCCCCCCCCCCCCCCCCCOc1cc(NCC(=O)O)cc(OC(=O)C23CC4CC(CC(C4)C2)C3)c1	pIC50	6.52

---

TARGET ENTITY: HSF-PLA2 (Homo sapiens, UniProt P14555)
Construct: extracellular enzyme obtained from human synovial fluid (HSF-PLA2); from tissue; host or cells: pooled human synovial fluid, added at 0.1% (v/v)
METHOD SUMMARY: Assay for Inhibition of HSF-PLA2 In Vitro
Type: biochemical
RUN CONDITIONS: (10 μM); read-out: Inhib of HSF-PLA2, % inhibition
inhibition at 10 µM values by entry
MEASUREMENT LABEL: inhibition at 10 µM

MOLECULE	MEASUREMENT LABEL	RESULT VALUE
O=C(O)CN(CC(=O)O)c1cc(C(=O)NC23CC4CC(CC(C4)C2)C3)cc(C(=O)NC23CC4CC(CC(C4)C2)C3)c1	inhibition at 10 µM	30%
CCCCCCCCCCCCCCOc1cc(NCC(=O)O)cc(OCCCCCCCCCCCCCC)c1 [Example 127c, N-[3,5-bis(tetradecyloxy)phenyl]glycine]	inhibition at 10 µM	73%
O=C(O)CN(CC(=O)O)c1cccc(OCCOc2ccc3ccccc3c2)c1 [Example 36g]	inhibition at 10 µM	19%

---

TARGET ENTITY: HSF-PLA2 (Homo sapiens, UniProt P14555)
Construct: extracellular enzyme obtained from human synovial fluid (HSF-PLA2); from tissue; host or cells: pooled human synovial fluid, added at 0.1% (v/v)
METHOD SUMMARY: Assay for Inhibition of HSF-PLA2 In Vitro
Format: biochemical
RUN CONDITIONS: (1 μM); read-out: Inhib of HSF-PLA2, % inhibition
MEASUREMENT LABEL: inhibition at 1 µM (%)

COMPOUND	MEASUREMENT LABEL	RESULT VALUE
CCCCCCCCCCCCCCCCCCOc1cc(OCCOCCOCCOCC)cc(N(CC(=O)O)CC(=O)O)c1	inhibition at 1 µM	100
CCCCCCCCCCCCCCc1ccc(N(CC(=O)O)CC(=O)O)cc1	inhibition at 1 µM	67
CCCCCCCCCCOC(=O)c1cc(C(=O)OCCCCCCCCCC)cc(N(CC(=O)O)CC(=O)O)c1	inhibition at 1 µM	73
CCCCCCCCCCCCCCOc1cc(C(=O)OC)cc(N(CC(=O)O)CC(=O)O)c1 [Example 69a]	inhibition at 1 µM	52

---

System: Naja naja snake venom PLA2 (SV-PLA2)
METHOD SUMMARY: Assay for inhibition of snake venom PLA2 (SV-PLA2) in vitro
Format: biochemical
RUN CONDITIONS: read-out: Inhib of SV-PLA2 IC50
pIC50: −log10 of the molar value.

COMPOUND	TARGET ENTITY	pIC50
CCCCCCCCCCOc1cc(OCCCCCCCCCC)cc(N(CC(=O)O)CC(=O)O)c1	Naja naja snake venom PLA2 (SV-PLA2)	7.77
CCCCCCCCc1ccc(N(CC(=O)O)CC(=O)O)cc1 [Example 39c]	Naja naja snake venom PLA2 (SV-PLA2)	7.18
CCCCCCCCCCNC(=O)c1cc(C(=O)NCCCCCCCCCC)cc(N(CC(=O)O)CC(=O)O)c1	Naja naja snake venom PLA2 (SV-PLA2)	7.30
CCCCCCCCCCCCOc1cc(OCCCCCCCCCCCC)cc(N(CC(=O)O)CC(=O)O)c1	Naja naja snake venom PLA2 (SV-PLA2)	6.77
CCCCCCCCOc1cc(OCCCCCCCC)cc(N(CC(=O)O)CC(=O)O)c1	Naja naja snake venom PLA2 (SV-PLA2)	7.66

---

TARGET ENTITY: HSF-PLA2 (Homo sapiens)
Construct: extracellular enzyme obtained from human synovial fluid (HSF-PLA2); from tissue; host or cells: pooled human synovial fluid, added at 0.1% (v/v)
METHOD SUMMARY: Assay for Inhibition of HSF-PLA2 In Vitro
Assay type: biochemical
RUN CONDITIONS: (1 μM); read-out: Inhib of HSF-PLA2, % inhibition
// reported inhibition at 1 µM for each item listed

COMPOUND	TARGET ENTITY	inhibition at 1 µM, %
CCCCCCCCCCCCCCCCCCOc1cc(OCCCOc2ccc(S(C)(=O)=O)cc2)cc(N(CC(=O)O)CC(=O)O)c1 [Example 161]	HSF-PLA2 (Homo sapiens)	100
CCCCCCCCCCCCCCCCCCOc1cc(N(CC(=O)O)CC(=O)O)cc([N+](=O)[O-])c1 [Example 93]	HSF-PLA2 (Homo sapiens)	56
CCCCCCCCCCc1ccc(N(CC(=O)O)CC(=O)O)cc1 [Example 39d]	HSF-PLA2 (Homo sapiens)	39
CCCCCCCCCCCCCCCCCCOc1cc(N(CC(=O)O)CC(=O)O)cc([S+]([O-])CC(=O)O)c1 (stereo not shown) [Example 168]	HSF-PLA2 (Homo sapiens)	26

---

TARGET ENTITY: HSF-PLA2 (Homo sapiens)
Construct: extracellular enzyme obtained from human synovial fluid (HSF-PLA2); from tissue; host or cells: pooled human synovial fluid, added at 0.1% (v/v)
Sequence (P14555 21-144): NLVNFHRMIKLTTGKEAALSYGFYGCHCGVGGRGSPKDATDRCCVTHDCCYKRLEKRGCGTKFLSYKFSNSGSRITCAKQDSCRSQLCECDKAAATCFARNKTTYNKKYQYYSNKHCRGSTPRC
METHOD SUMMARY: Assay for Inhibition of HSF-PLA2 In Vitro
Assay type: biochemical
RUN CONDITIONS: (1 μM); read-out: Inhib of HSF-PLA2, % inhibition
MEASUREMENT LABEL: inhibition at 1 µM (%)

COMPOUND	TARGET ENTITY	MEASUREMENT LABEL	RESULT VALUE
CCCCCCCCCCCCCCCCCCOc1cc(OCCCOc2ccc(O)cc2)cc(N(CC(=O)O)CC(=O)O)c1 [Example 58l]	HSF-PLA2 (Homo sapiens)	inhibition at 1 µM	81
CCCCCCCCCCOc1cc(OCCCCCCCCCC)cc(N(CC(=O)O)CC(=O)OCCN(CC)CC)c1.Cl [Example 33, monohydrochloride salt]	HSF-PLA2 (Homo sapiens)	inhibition at 1 µM	-5
CCCCCCCCCCCCCC(=O)Oc1ccc(N(CC(=O)O)CC(=O)O)cc1OC(=O)CCCCCCCCCCCCC [Example 119b]	HSF-PLA2 (Homo sapiens)	inhibition at 1 µM	80
CCCCCCCCCCOc1cc(C(=O)O)cc(N(CC(=O)O)CC(=O)O)c1 [Example 69d]	HSF-PLA2 (Homo sapiens)	inhibition at 1 µM	7
CCCCCCCCCCCCCCOC(=O)c1cc(C(=O)OCCCCCCCCCCCCCC)cc(N(CC(=O)O)CC(=O)O)c1	HSF-PLA2 (Homo sapiens)	inhibition at 1 µM	48
CCCCCCCCCCCCCCCCCCOc1cc(OCCCOc2ccc([S+](C)[O-])cc2)cc(N(CC(=O)O)CC(=O)O)c1 (stereo not shown)	HSF-PLA2 (Homo sapiens)	inhibition at 1 µM	100
CCCCCCCCCCCCCCCCCCNC(=O)Oc1ccc(N(CC(=O)O)CC(=O)O)cc1OC(=O)NCCCCCCCCCCCCCCCCCC [Example 119d]	HSF-PLA2 (Homo sapiens)	inhibition at 1 µM	19
